The reported measurements were obtained from PubChem BioAssay (NCI).

Tested on: MDA-MB-231 breast
ASSAY_PROTOCOL: NCI tumour cell line growth inhibition, 48 h
Where a SMILES comes first, the peptide text is derived from it. The star is where a group is joined. Cbz = O=C(OCc1ccccc1)*
MEASUREMENT_KIND: TGI

# MOLECULE, ASSAY_RESULT
measured = [
    ("O=C(O)CCC(NC(=O)OCc1ccccc1)C(=O)NC(Cc1cnc[nH]1)C(=O)O (stereo not drawn) (Cbz-Glu-His-OH; configuration not given here)", "> 100 µM"),
    ("S=C(S)NCNC(=S)S.[Zn+2]", "> 100 µM"),
]

query: Notebook entry, MDA-MB-231 breast assay: TGI of CCOC(=O)C(Cc1ccc(CCCC(=O)NCCC(=O)Nc2ccc3nc(C)sc3c2)cc1)C(=O)OCC = ?
result: > 100 µM

====

System: MOLT-4 leukemia
ASSAY_PROTOCOL: NCI tumour cell line growth inhibition, 48 h
MEASUREMENT_KIND: TGI

query: Entry Cc1[nH]nc(C(F)(F)F)c1N=NN1CCOCC1 has what TGI?
result: 5.32 µM

query: Entry Cc1cc(Cl)ccc1NC(=O)C(=O)Cc1nc2ccccc2o1 has what TGI?
result: > 100 µM

query: Entry CC(C)(C)c1ccc(O)c(C(O)c2ccncc2)c1 (configuration not stated) has what TGI?
result: > 100 µM

====

// reported TGI per item
Tested on: SF-539 CNS
ASSAY_PROTOCOL: NCI tumour cell line growth inhibition, 48 h

query: Entry O=C(CC1(O)C(=O)N(Cc2ccccc2)c2ccc(F)cc21)c1ccc(C(=O)NCC2CCC3(CC2)OOC2(CCCCC2)OO3)cc1 (stereo not drawn) has what TGI?
result: 0.541 µM

query: Entry C1=CC(N(c2ccccc2)C2C=CCCC2)CCC1 (stereo not drawn) has what TGI?
result: > 100 µM

query: Entry CCOC(=O)C(Cc1ccc(CCCC(=O)NCCC(=O)Nc2ccc3nc(C)sc3c2)cc1)C(=O)OCC has what TGI?
result: > 82.6 µM

====

Tested on: CCRF-CEM leukemia
ASSAY_PROTOCOL: NCI tumour cell line growth inhibition, 48 h
MEASUREMENT_KIND: TGI

# COMPOUND, TGI
rows = [
    ("C=CCCCCOc1ccccc1-c1cnc(OCCCCC=C)n1C", "20.4 µM"),
    ("Cc1c(N=Nc2ccc(Cl)cc2)c(-c2ccccc2)n(C2OC(CO)C(O)C(O)C2O)c(=S)c1C#N (centres undefined)", "87.5 µM"),
    ("CCOC(=O)Nc1ccc(C)c(NC(=O)OCC)c1", "> 100 µM"),
    ("CCSc1ncnc2c1ncn2C1OC(CO)C(O)C1O (centres undefined)", "> 100 µM"),
    ("Nc1nc(SC/C=C/c2ccccc2)c2[nH]cnc2n1", "> 100 µM"),
    ("CSc1ncnc2c1ncn2CCC(=O)OC(C)(C)C", "> 100 µM"),
    ("CC(=O)c1[nH]c(NCc2ccccc2)c(C(=S)Nc2ccccc2)c1N", "> 100 µM"),
    ("CCOc1ccccc1NC(=O)C(=O)CC(=O)c1sc(Nc2nnc(-c3ccc(Cl)c(Cl)c3)o2)nc1C", "> 100 µM"),
]

Now take the following compound into account.
query: Entry C/C(Cc1ccccc1)=N\NC(N)=S has what TGI?
result: > 100 µM
